Tested on: Hepacivirus hominis
Assay: Inhibition of HCV NS5BCdelta21 RdRp activity at 100 uM after 1 hr by liquid scintillation counting analysis in presence of [alpha-32P]UTP relative to control
Quantity Kind: inhibition (%)

INSERT INTO measurements (smiles_repr, result_number) VALUES
  ('O=C1N/C(=N\c2nnc(-c3ccc(Cl)cc3)s2)S/C1=C\c1ccc([N+](=O)[O-])cc1', 33),
  ('O=C1CS/C(=N/c2nnc(-c3ccc(F)cc3)s2)N1', 76.1),
  ('O=C1N/C(=N\c2nnc(-c3ccc(F)cc3)s2)S/C1=C\c1c(Cl)cccc1Cl', 74.1),
  ('O=C1N/C(=N\c2nnc(-c3ccc(F)cc3)s2)S/C1=C\c1ccccc1F', 62.4),
  ('O=C1CS/C(=N/c2nnc(-c3ccc(Cl)cc3)s2)N1', 74.4),
  ('O=C1N/C(=N\c2nnc(-c3ccc(F)cc3)s2)S/C1=C\c1ccc([N+](=O)[O-])cc1', 24.1),
  ('O=C1N/C(=N\c2nnc(-c3ccc(Cl)cc3)s2)S/C1=C\c1ccc(F)cc1', 25),
  ('COc1cccc(OC)c1/C=C1\S/C(=N/c2nnc(-c3ccc(Cl)cc3)s2)NC1=O', 24.1),
  ('O=C1N/C(=N\c2nnc(-c3ccc(Cl)cc3)s2)S/C1=C\c1c(F)cccc1Cl', 60.3),
  ('O=C1N/C(=N\c2nnc(-c3ccc(Cl)cc3)s2)S/C1=C\c1c(Cl)cccc1Cl', 82),
  ('O=C1N/C(=N\c2nnc(-c3ccc(F)cc3)s2)S/C1=C\c1c(F)cccc1Cl', 28.1),
  ('O=C1N/C(=N\c2nnc(-c3ccc(Cl)cc3)s2)S/C1=C\c1ccc(Cl)cc1Cl', 25.7);
